Target: PDK-1 (Homo sapiens, UniProt O15530)
Sequence (O15530 1-556): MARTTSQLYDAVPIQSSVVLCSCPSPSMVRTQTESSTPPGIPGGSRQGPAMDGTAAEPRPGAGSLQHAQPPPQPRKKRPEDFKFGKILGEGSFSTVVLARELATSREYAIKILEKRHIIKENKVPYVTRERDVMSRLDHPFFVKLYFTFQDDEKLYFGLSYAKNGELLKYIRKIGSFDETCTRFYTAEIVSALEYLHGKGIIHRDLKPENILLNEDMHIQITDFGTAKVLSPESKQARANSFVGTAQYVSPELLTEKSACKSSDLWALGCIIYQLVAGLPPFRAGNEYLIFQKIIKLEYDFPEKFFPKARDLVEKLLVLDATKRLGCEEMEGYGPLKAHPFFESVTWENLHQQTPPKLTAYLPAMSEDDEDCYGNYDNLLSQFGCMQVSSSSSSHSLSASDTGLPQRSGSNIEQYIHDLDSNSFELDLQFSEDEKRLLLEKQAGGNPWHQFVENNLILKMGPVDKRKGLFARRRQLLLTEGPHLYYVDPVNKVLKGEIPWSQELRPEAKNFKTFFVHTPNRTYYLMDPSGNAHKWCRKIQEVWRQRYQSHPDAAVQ
pKi: −log10 of the molar value.
Endpoint name: pKi

q: Give its pKi value. Item: NS(=O)(=O)c1ccc(Nc2ncn(-c3ccnc(N[C@H]4CCCNC4)c3)n2)cc1
a: > 6.00

---

Biological target: human Src kinase (Homo sapiens)
Construct: 25 nM of recombinant human Src kinase
Test: Src inhibition assay B: spectrophotometric (uv-vis) coupled enzyme assay
Format: biochemical
Conditions: 100 μM ATP
Would you kindly list Ki for each of these compounds?

q: Give its Ki value. Item: c1ccc(Nc2ncn(-c3ccnc(N4CCCCCC4)c3)n2)cc1
a: < 0.5 µM

q: # iterate: CC(=O)N1[C@H](C)CN(c2cc(-n3cnc(Nc4ccccc4)n3)ccn2)C[C@@H]1C
a: < 0.5 µM

q: # iterate: c1ccc(-n2cnc(Nc3ccc(N4CCOCC4)cc3)n2)cc1
a: > 1 µM

q: # iterate: CC1CCCN1c1cc(-n2cnc(Nc3ccccc3)n2)ccn1 (stereo not shown)
a: 0.5 to 1 µM

q: # iterate: CC(=O)N1[C@H](C)CN(c2cc(-n3cnc(Nc4ccc(NC(=O)NC(C)(C)C)cc4)n3)ccn2)C[C@@H]1C
a: 0.5 to 1 µM

q: # iterate: O=C(C1CCCO1)N1CCN(c2cc(-n3cnc(Nc4ccccc4)n3)ccn2)CC1 (stereo not shown)
a: > 1 µM

q: # iterate: CCCN(CC1CC1)c1cc(-n2cnc(Nc3ccccc3)n2)ccn1
a: > 1 µM

---

Would you kindly list pKi for each of these compounds?
Target: human Src kinase (Homo sapiens, UniProt P12931)
Construct: 25 nM of recombinant human Src kinase
Sequence (P12931 whole entry): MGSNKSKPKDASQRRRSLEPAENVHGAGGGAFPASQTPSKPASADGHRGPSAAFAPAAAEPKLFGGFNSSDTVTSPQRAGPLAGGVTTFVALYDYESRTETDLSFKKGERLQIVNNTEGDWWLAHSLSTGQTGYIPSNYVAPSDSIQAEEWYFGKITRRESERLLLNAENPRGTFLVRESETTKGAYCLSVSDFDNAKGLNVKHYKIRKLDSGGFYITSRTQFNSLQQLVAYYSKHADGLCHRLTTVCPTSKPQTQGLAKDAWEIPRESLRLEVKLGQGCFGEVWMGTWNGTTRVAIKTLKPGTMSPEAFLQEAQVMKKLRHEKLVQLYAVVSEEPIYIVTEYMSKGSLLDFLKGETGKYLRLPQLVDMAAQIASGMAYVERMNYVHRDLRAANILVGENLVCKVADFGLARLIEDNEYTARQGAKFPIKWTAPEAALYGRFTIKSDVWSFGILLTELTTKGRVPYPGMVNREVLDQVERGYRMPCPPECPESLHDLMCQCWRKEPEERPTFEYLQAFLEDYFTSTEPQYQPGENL
Test: Src inhibition assay B: spectrophotometric (uv-vis) coupled enzyme assay
Conditions: 100 μM ATP
pKi: −log10 of the molar value.

q: Give its pKi value. Item: CC(=O)N1CCCN(c2cc(-n3cnc(Nc4ccccc4)n3)ccn2)CC1 [Compound I-66]
a: < 6.00

q: # iterate: CCC(=O)N1CCCN(c2cc(-n3cnc(Nc4ccccc4)n3)ccn2)CC1 [Compound I-67]
a: < 6.00

q: # iterate: CN(C)CCCN(C)c1cc(-n2cnc(Nc3ccccc3)n2)ccn1 [Compound I-53]
a: < 6.00

q: # iterate: CCCNC(=O)Nc1ccc(Nc2ncn(-c3ccnc(N4C[C@@H](C)N(C(C)=O)[C@@H](C)C4)c3)n2)cc1 [Compound I-99]
a: > 6.30

q: # iterate: CC(=O)N1[C@H](C)CN(c2cc(-n3cnc(Nc4ccc(NC(=O)c5cccs5)cc4)n3)ccn2)C[C@@H]1C [Compound I-80]
a: 6.00 to 6.30

q: # iterate: CCCN(CCO)c1cc(-n2cnc(Nc3ccccc3)n2)ccn1 [Compound I-58]
a: > 6.30

q: # iterate: COCCN(C)c1cc(-n2cnc(Nc3ccccc3)n2)ccn1 [Compound I-59]
a: < 6.00

q: # iterate: O=C(Cc1ccccc1)Nc1cc(-n2cnc(Nc3ccccc3)n2)ccn1 [Compound I-96]
a: > 6.30

q: # iterate: CCOC(=O)c1ccc(Nc2ncn(-c3ccnc(N4C[C@@H](C)N(C(C)=O)[C@@H](C)C4)c3)n2)cc1 [Compound I-75]
a: > 6.30

q: # iterate: O=C(CCc1ccccc1)Nc1cc(-n2cnc(Nc3ccccc3)n2)ccn1 [Compound I-95]
a: > 6.30

q: # iterate: COc1cc(Nc2ncn(-c3ccccc3)n2)cc(OC)c1OC [Compound I-42]
a: > 6.30

q: # iterate: CC(=O)N1[C@H](C)CN(c2cc(-n3cnc(Nc4ccc(NC(=O)c5ccco5)cc4)n3)ccn2)C[C@@H]1C [Compound I-81]
a: > 6.30

q: # iterate: CC(=O)N1[C@H](C)CN(c2cc(-n3cnc(Nc4ccc(NC(=O)OCC(C)(C)C)cc4)n3)ccn2)C[C@@H]1C [Compound I-91]
a: 6.00 to 6.30

q: # iterate: CCCC(=O)N1CCCN(c2cc(-n3cnc(Nc4ccccc4)n3)ccn2)CC1 [Compound I-68]
a: < 6.00

q: # iterate: CC(C)C(=O)N1CCCN(c2cc(-n3cnc(Nc4ccccc4)n3)ccn2)CC1 [Compound I-69]
a: < 6.00

q: # iterate: CC(=O)N1[C@H](C)CN(c2cc(-n3cnc(Nc4ccc(N5CCN(S(=O)(=O)c6ccc(C)cc6)CC5)cc4)n3)ccn2)C[C@@H]1C [Compound I-92]
a: 6.00 to 6.30

q: # iterate: CC(=O)N1[C@H](C)CN(c2cc(-n3cnc(Nc4ccc(NC(=O)N(C)C)cc4)n3)ccn2)C[C@@H]1C [Compound I-77]
a: 6.00 to 6.30

q: # iterate: CCN(CCO)c1cc(-n2cnc(Nc3ccccc3)n2)ccn1 [Compound I-54]
a: > 6.30

q: # iterate: CC(=O)N1[C@H](C)CN(c2cc(-n3cnc(Nc4ccc(NC(=O)OCC(C)C)cc4)n3)ccn2)C[C@@H]1C [Compound I-90]
a: 6.00 to 6.30

q: # iterate: CN(Cc1cccnc1)c1cc(-n2cnc(Nc3ccccc3)n2)ccn1 [Compound I-57]
a: 6.00 to 6.30

q: # iterate: CC1CCCCN1c1cc(-n2cnc(Nc3ccccc3)n2)ccn1 (stereo not drawn) [Compound I-126]
a: < 6.00

q: # iterate: CC(=O)N1[C@H](C)CN(c2cc(-n3cnc(Nc4ccc(N5CCOCC5)cc4)n3)ccn2)C[C@@H]1C [Compound I-85]
a: 6.00 to 6.30

q: # iterate: CCOc1ccc(Nc2ncn(-c3ccccc3)n2)cc1 [Compound I-47]
a: < 6.00

q: # iterate: CC(=O)N1[C@H](C)CN(c2cc(-n3cnc(Nc4ccc(NC(=O)C(F)(F)F)cc4)n3)ccn2)C[C@@H]1C [Compound I-79]
a: > 6.30

q: # iterate: CC(C)Oc1cccc(Nc2ncn(-c3ccccc3)n2)c1 [Compound I-46]
a: < 6.00

q: # iterate: COc1cc(Nc2ncn(-c3ccc(C#N)cc3)n2)cc(OC)c1OC [Compound I-43]
a: > 6.30

q: # iterate: CC(C)CC(=O)N1CCCN(c2cc(-n3cnc(Nc4ccccc4)n3)ccn2)CC1 [Compound I-70]
a: < 6.00

q: # iterate: c1ccc(Nc2ncn(-c3ccnc(NC4CCCCC4)c3)n2)cc1 [Compound I-50]
a: > 6.30

q: # iterate: CC(C)CCN(C)c1cc(-n2cnc(Nc3ccccc3)n2)ccn1 [Compound I-62]
a: 6.00 to 6.30

q: # iterate: CC(=O)N1[C@H](C)CN(c2cc(-n3cnc(Nc4ccc(N5CCN(C(=O)OC(C)(C)C)CC5)cc4)n3)ccn2)C[C@@H]1C [Compound I-97]
a: > 6.30

q: # iterate: O=C(CC1CCCC1)Nc1cc(-n2cnc(Nc3ccccc3)n2)ccn1 [Compound I-94]
a: > 6.30

q: # iterate: CC(C)(C)CC(=O)Nc1cc(-n2cnc(Nc3ccccc3)n2)ccn1 [Compound I-102]
a: > 6.30

q: # iterate: CCN(CC)CCNc1cc(-n2cnc(Nc3ccccc3)n2)ccn1 [Compound I-60]
a: < 6.00

---

Test system GSK-3β (AA 1-420) (Homo sapiens, UniProt P49841), Ki listed for each of the molecules.

q: Give its Ki value. Item: CC(C)CC(=O)N1CCCN(c2cc(-n3cnc(Nc4ccccc4)n3)ccn2)CC1 [Compound I-70]
a: > 1000 nM

q: # iterate: CC(C)Oc1cccc(Nc2ncn(-c3ccccc3)n2)c1 [Compound I-46]
a: > 1000 nM

q: # iterate: CC(=O)N1CCCN(c2cc(-n3cnc(Nc4ccccc4)n3)ccn2)CC1 [Compound I-66]
a: > 1000 nM

q: # iterate: c1ccc(-n2cnc(Nc3ccc4c(c3)OCCO4)n2)cc1 [Compound I-44]
a: > 1000 nM

q: # iterate: OC[C@H]1CCCN(c2cc(-n3cnc(Nc4ccccc4)n3)ccn2)C1 [Compound I-65]
a: 500 to 1000 nM

q: # iterate: c1ccc(Nc2ncn(-c3ccnc(N4CCCCCCC4)c3)n2)cc1 [Compound I-52]
a: 500 to 1000 nM

q: # iterate: CC(=O)N1[C@H](C)CN(c2cc(-n3cnc(Nc4ccc(NC(=O)C(F)(F)F)cc4)n3)ccn2)C[C@@H]1C [Compound I-79]
a: > 1000 nM

q: # iterate: CCOc1cccc(Nc2ncn(-c3ccccc3)n2)c1 [Compound I-45]
a: > 1000 nM

q: # iterate: CN(CCO)c1cc(-n2cnc(Nc3ccccc3)n2)ccn1 [Compound I-51]
a: < 500 nM
